These measurements were taken from ChEMBL document CHEMBL1157101.

- System: HT-29
- measurement_description: Antiproliferative activity against human HT-29 cells after 72 hrs by sulforhodamine B assay
- Type: functional, cell-based
- test_settings: HT-29, 72 h

structure_as_smiles	assayed_system	value_operator	IC50 / µM
CN(C)C(=S)N/N=C/c1ccc2cccnc2n1	HT-29	=	0.41
COc1ccccc1NC(=S)N/N=C/c1ccc2ccccc2n1	HT-29	>	100
S=C(N/N=C/c1ccc2ccccc2n1)Nc1cccc(Cl)c1	HT-29	=	48.1

###

- Tested on: MCF7
- measurement_description: Antiproliferative activity against human MCF7 cells after 72 hrs by sulforhodamine B assay
- Type: functional, cell-based
- test_settings: MCF7, 72 h
pIC50: −log10 of the molar value.

structure_as_smiles	pIC50
CN(C)C(=S)N/N=C/c1ccc2ccccc2n1	6.47

###

- Tested on: HT-29
- measurement_description: Antiproliferative activity against human HT-29 cells after 72 hrs by sulforhodamine B assay
- Type: functional, cell-based
- test_settings: HT-29, 72 h
Note to self: use 1 only for IC50 readings below 20 µM; a reading exactly at 20 µM still gets 0.

structure_as_smiles	assayed_system	cat
Fc1cccc(NC(=S)N/N=C/c2ccc3ccccc3n2)c1	HT-29	0
CN(C)C(=S)N/N=C/c1cnc2ccccc2n1	HT-29	1
Cc1ccc(NC(=O)N/N=C/c2ccc3ccccc3n2)cc1	HT-29	0
N#Cc1ccc(NC(=S)N/N=C/c2ccc3ccccc3n2)cc1	HT-29	1
Cc1csc2sc(/C=N/NC(N)=S)c(C)c12	HT-29	0
Fc1ccc(NC(=S)N/N=C/c2ccc3ccccc3n2)cc1	HT-29	0
Cc1ccc(NC(=S)N/N=C/c2ccc3ccccc3n2)cc1	HT-29	0
COc1ccc(NC(=S)N/N=C/c2ccc3ccccc3n2)cc1	HT-29	0
COc1ccc(C)cc1NC(=S)N/N=C/c1ccc2ccccc2n1	HT-29	0
FC(F)(F)c1ccc(NC(=S)N/N=C/c2ccc3ccccc3n2)cc1	HT-29	0
Cc1cccc(NC(=S)N/N=C/c2ccc3ccccc3n2)c1	HT-29	0
Cc1ccccc1NC(=S)N/N=C/c1ccc2ccccc2n1	HT-29	0
S=C(N/N=C/c1ccc2ccccc2n1)Nc1cccc(Br)c1	HT-29	0
S=C(N/N=C/c1ccc2ccccc2n1)Nc1ccc(Br)cc1	HT-29	0
FC(F)(F)c1ccccc1NC(=S)N/N=C/c1ccc2ccccc2n1	HT-29	1
NC(=S)N/N=C/c1nc2ccccc2c2ncccc12	HT-29	1
COc1cccc(NC(=S)N/N=C/c2ccc3ccccc3n2)c1	HT-29	0
S=C(N/N=C/c1ccc2ccccc2n1)Nc1ccccc1	HT-29	1
NC(=S)N/N=C/c1ccc2cccnc2n1	HT-29	1
CC(C)c1cccc(C(C)C)c1NC(=S)N/N=C/c1ccc2ccccc2n1	HT-29	0
NC(=S)N/N=C/c1cnc2ccccc2n1	HT-29	0
Fc1ccccc1NC(=S)N/N=C/c1ccc2ccccc2n1	HT-29	0
NC(=S)N/N=C/c1nc2ccccc2s1	HT-29	0
NC(=S)N/N=C/c1cc2ccccc2s1	HT-29	0
CN(C)C(=S)N/N=C/c1nc2ccccc2s1	HT-29	1
S=C(NCc1ccccc1)N/N=C/c1ccc2ccccc2n1	HT-29	0

###

# maps each entry to its pIC50
- Tested on: HeLa
- measurement_description: Antiproliferative activity against human HeLa cells after 72 hrs by sulforhodamine B assay
- Type: functional, cell-based
pIC50: −log10 of the molar value.
reported_metric: pIC50

structure_as_smiles	value_operator	readout_number
NC(=S)N/N=C/c1cc2ccccc2s1	=	5.17
NC(=S)N/N=C/c1ccc2cccnc2n1	<	4.00
Cc1ccc(NC(=S)N/N=C/c2ccc3ccccc3n2)cc1	=	4.07
Fc1cccc(NC(=S)N/N=C/c2ccc3ccccc3n2)c1	=	4.15
CC(C)c1cccc(C(C)C)c1NC(=S)N/N=C/c1ccc2ccccc2n1	=	4.79
S=C(N/N=C/c1ccc2ccccc2n1)Nc1ccccc1	=	4.56
CN(C)C(=S)N/N=C/c1cnc2ccccc2n1	=	6.12
COc1ccc(C)cc1NC(=S)N/N=C/c1ccc2ccccc2n1	<	4.00
Cc1ccc(NC(=O)N/N=C/c2ccc3ccccc3n2)cc1	<	4.00
CN(C)C(=S)N/N=C/c1ccc2cccnc2n1	=	6.01

###

- System: U-937
- measurement_description: Antiproliferative activity against human U937 cells after 72 hrs by sulforhodamine B assay
- Type: functional, cell-based
- test_settings: U-937, 72 h
pIC50: −log10 of the molar value.

structure_as_smiles	assayed_system	pIC50
CN(C)C(=S)N/N=C/c1ccc2ccccc2n1	U-937	7.52

###

# maps each entry to its IC50
- Tested on: HeLa
- measurement_description: Antiproliferative activity against human HeLa cells after 72 hrs by sulforhodamine B assay
- Type: functional, cell-based

structure_as_smiles	value_operator	IC50 (µM)
NC(=S)N/N=C/c1cc2cccnc2s1	=	6.29
NC(=S)N/N=C/c1nc2ccccc2c2ncccc12	=	21.9
Cc1csc2sc(/C=N/NC(N)=S)c(C)c12	=	1.12
CN(C)C(=S)N/N=C/c1nc2ccccc2s1	=	2.1
S=C(N/N=C/c1ccc2ccccc2n1)Nc1ccc(Cl)cc1	>	100
S=C(N/N=C/c1ccc2ccccc2n1)Nc1ccc(Br)cc1	=	56.8
Fc1ccccc1NC(=S)N/N=C/c1ccc2ccccc2n1	>	100
Cc1cccc(NC(=S)N/N=C/c2ccc3ccccc3n2)c1	>	100
CN(C)C(=S)N/N=C/c1ccc2ccccc2n1	=	0.09
COc1ccc(NC(=S)N/N=C/c2ccc3ccccc3n2)cc1	=	72.6
S=C(N/N=C/c1ccc2ccccc2n1)Nc1ccccc1Br	>	100
NC(=S)N/N=C/c1cnc2ccccc2n1	>	100
NC(=S)N/N=C/c1nc2ccccc2s1	=	5.35
S=C(NCc1ccccc1)N/N=C/c1ccc2ccccc2n1	=	62.8
S=C(N/N=C/c1ccc2ccccc2n1)Nc1cccc(Cl)c1	=	52.5
COc1cccc(NC(=S)N/N=C/c2ccc3ccccc3n2)c1	=	74.5
Fc1ccc(NC(=S)N/N=C/c2ccc3ccccc3n2)cc1	=	33.2
CN(C)C(=S)N/N=C/c1nc2ccccc2c2ncccc12	=	1.72
CN(C)C(=S)N/N=C/c1cc2cccnc2s1	=	48.4
N#Cc1ccc(NC(=S)N/N=C/c2ccc3ccccc3n2)cc1	=	20
COc1ccccc1NC(=S)N/N=C/c1ccc2ccccc2n1	>	100
NC(=S)N/N=C/c1ccc2ccccc2n1	=	0.96
FC(F)(F)c1ccc(NC(=S)N/N=C/c2ccc3ccccc3n2)cc1	=	59.1
S=C(N/N=C/c1ccc2ccccc2n1)Nc1cccc(Br)c1	=	70
Cc1ccccc1NC(=S)N/N=C/c1ccc2ccccc2n1	>	100
FC(F)(F)c1ccccc1NC(=S)N/N=C/c1ccc2ccccc2n1	=	18.8

###

- Test system: K562
- measurement_description: Antiproliferative activity against human K562 cells after 72 hrs by sulforhodamine B assay
- Format: functional, cell-based
- test_settings: K562, 72 h
pIC50: −log10 of the molar value.
reported_metric: pIC50

structure_as_smiles	reported_metric	readout_number
CN(C)C(=S)N/N=C/c1ccc2ccccc2n1	pIC50	7.22

###

- Tested on: Bel-7402
- measurement_description: Antiproliferative activity against human Bel7402 cells after 72 hrs by sulforhodamine B assay
- Assay type: functional, cell-based
- test_settings: Bel-7402, 72 h

structure_as_smiles	unit_name	IC50
CN(C)C(=S)N/N=C/c1ccc2ccccc2n1	nM	180

###

- System: HCT-116
- measurement_description: Antiproliferative activity against human HCT116 cells after 72 hrs by sulforhodamine B assay
- Assay type: functional, cell-based
- test_settings: HCT-116, 72 h

structure_as_smiles	assayed_system	IC50 / nM
CN(C)C(=S)N/N=C/c1ccc2ccccc2n1	HCT-116	220

###

- assayed_system: DNA topoisomerase 2-alpha (Homo sapiens)
- Sequence (P11388 whole entry): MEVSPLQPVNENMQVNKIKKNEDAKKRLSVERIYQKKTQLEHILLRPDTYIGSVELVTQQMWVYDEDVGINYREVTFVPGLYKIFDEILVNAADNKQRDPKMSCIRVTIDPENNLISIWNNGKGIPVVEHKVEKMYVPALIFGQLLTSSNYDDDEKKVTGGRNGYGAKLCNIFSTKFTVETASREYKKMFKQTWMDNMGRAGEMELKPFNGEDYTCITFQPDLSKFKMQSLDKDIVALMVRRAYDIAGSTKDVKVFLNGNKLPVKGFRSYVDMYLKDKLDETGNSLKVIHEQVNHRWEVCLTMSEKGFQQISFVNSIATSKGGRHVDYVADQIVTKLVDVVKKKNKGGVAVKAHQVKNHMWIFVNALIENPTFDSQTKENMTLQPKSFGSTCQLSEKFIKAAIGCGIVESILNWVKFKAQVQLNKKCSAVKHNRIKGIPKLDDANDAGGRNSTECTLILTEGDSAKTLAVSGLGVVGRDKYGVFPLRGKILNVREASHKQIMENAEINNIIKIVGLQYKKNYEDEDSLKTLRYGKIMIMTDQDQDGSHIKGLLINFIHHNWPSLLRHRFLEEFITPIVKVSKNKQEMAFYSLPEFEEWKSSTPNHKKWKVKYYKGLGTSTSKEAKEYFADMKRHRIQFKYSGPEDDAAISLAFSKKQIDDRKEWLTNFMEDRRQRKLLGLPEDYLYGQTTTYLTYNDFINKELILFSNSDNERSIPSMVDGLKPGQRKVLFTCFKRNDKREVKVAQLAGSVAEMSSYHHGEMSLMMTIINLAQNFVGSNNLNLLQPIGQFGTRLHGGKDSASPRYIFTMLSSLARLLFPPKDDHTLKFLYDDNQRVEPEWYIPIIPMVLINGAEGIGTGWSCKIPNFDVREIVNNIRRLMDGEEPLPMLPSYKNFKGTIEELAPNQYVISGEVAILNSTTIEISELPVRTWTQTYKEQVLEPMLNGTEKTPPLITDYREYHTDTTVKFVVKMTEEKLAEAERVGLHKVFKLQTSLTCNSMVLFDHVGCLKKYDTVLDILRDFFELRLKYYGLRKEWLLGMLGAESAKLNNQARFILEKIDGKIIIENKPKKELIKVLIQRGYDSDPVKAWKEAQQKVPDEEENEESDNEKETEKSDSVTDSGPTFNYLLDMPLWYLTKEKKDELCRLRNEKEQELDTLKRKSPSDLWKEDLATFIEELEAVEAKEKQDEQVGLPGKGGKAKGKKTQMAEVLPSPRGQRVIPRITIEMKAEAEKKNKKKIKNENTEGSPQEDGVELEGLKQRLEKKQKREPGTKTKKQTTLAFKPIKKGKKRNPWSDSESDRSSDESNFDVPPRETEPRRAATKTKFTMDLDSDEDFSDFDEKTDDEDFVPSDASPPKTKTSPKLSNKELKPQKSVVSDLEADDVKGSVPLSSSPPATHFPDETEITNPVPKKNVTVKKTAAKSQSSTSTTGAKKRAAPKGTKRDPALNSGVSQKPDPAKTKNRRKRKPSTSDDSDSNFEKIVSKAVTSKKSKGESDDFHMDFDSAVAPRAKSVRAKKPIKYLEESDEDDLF
- measurement_description: Inhibition of human topoisomerase 2 alpha-mediated decatenation of kDNA at 100 uM after 15 mins
The source made the active and inactive calls. No cut-off for these calls is given here.
Outcomes: True for active, False for inactive

structure_as_smiles	cat
CN(C)C(=S)N/N=C/c1cnc2ccccc2n1	True
NC(=S)N/N=C/c1cc2ccccc2s1	False
NC(=S)N/N=C/c1ccc2ccccc2n1	False
NC(=S)N/N=C/c1nc2ccccc2c2ncccc12	True
NC(=S)N/N=C/c1nc2ccccc2s1	False
Fc1cccc(NC(=S)N/N=C/c2ccc3ccccc3n2)c1	False
CN(C)C(=S)N/N=C/c1nc2ccccc2c2ncccc12	True
CN(C)C(=S)N/N=C/c1ccc2ccccc2n1	True
Cc1csc2sc(/C=N/NC(N)=S)c(C)c12	False
CN(C)C(=S)N/N=C/c1cc2cccnc2s1	True
CN(C)C(=S)N/N=C/c1ccc2cccnc2n1	True
NC(=S)N/N=C/c1ccc2cccnc2n1	False
Cc1ccccc1NC(=S)N/N=C/c1ccc2ccccc2n1	False
CN(C)C(=S)N/N=C/c1nc2ccccc2s1	True

###

- Test system: HT-29
- measurement_description: Antiproliferative activity against human HT-29 cells after 72 hrs by sulforhodamine B assay
- Type: functional, cell-based
- test_settings: HT-29, 72 h
pIC50: −log10 of the molar value.
Classification field: enter Y for pIC50 values not below 5, N for values below it.

structure_as_smiles	cat
CN(C)C(=S)N/N=C/c1ccc2ccccc2n1	Y
NC(=S)N/N=C/c1ccc2ccccc2n1	N
S=C(N/N=C/c1ccc2ccccc2n1)Nc1ccccc1Br	N
NC(=S)N/N=C/c1cc2cccnc2s1	N
CN(C)C(=S)N/N=C/c1nc2ccccc2c2ncccc12	Y
S=C(N/N=C/c1ccc2ccccc2n1)Nc1ccc(Cl)cc1	N
